test system: Calu-3; experiment: cell viability relative to DMSO; higher = less toxic; settings: 72 h; 1 nM
Experimental Readout: cell viability (%)
Express the result in % but write the number alone.

State the recorded cell viability for this entry: CC(C)C[C@H](NC(=O)[C@H](CCCCN)NC(=O)[C@H](CCCNC(=N)N)NC(=O)[C@H](C)NC(=O)[C@H](CO)NC(=O)[C@H](CCCCN)NC(=O)[C@H](CCCNC(=N)N)NC(=O)[C@H](C)NC(=O)CNC(=O)[C@@H](NC(=O)[C@H](Cc1ccccc1)NC(=O)CNC(=O)CNC(=O)[C@@H](N)Cc1ccccc1)[C@@H](C)O)C(=O)N[C@@H](C)C(=O)N[C@@H](CC(N)=O)C(=O)N[C@@H](CCC(N)=O)C(=O)O [orphanin-fq]
104

Requested field: cell viability. Item: N=C(N)SCCc1ccc(OCc2ccc([N+](=O)[O-])cc2)cc1 [KB-R7943]
104
